experiment: qHTS for Inhibitors of human tyrosyl-DNA phosphodiesterase 1 (TDP1): qHTS in cells in presence of CPT; settings: chicken DT40 Tdp1-/-;hTDP1 cells + 20 nM CPT, ATP luminescence, 48 h; series mostly up to 46.2 µM; also: nearly all actives have a fitted effect of over 55% in size
Among all 420,000 compounds or so, about 50,000 (12%) were called active. About 26% were inconclusive and are not listed. Calls follow the shape of the dose curve; as a rule, active = well fitted inhibition curve with a large enough effect; inconclusive = small, poorly fitted or top-dose-only effect; inactive = flat fitted curve, though single readings scatter. For the sample, actives were picked, then their nearest neighbours and some compounds at random.
Hi there, use one of these labels in your reply, thanks! active, inactive

{"MOLECULE": "Cc1ccc(C(=O)Nc2c(C#N)c(C)c(C)n2Cc2ccccc2)cc1", "LABEL_CLASS": "active"}
{"MOLECULE": "Cc1c(C#N)c(NC(=O)c2ccccc2)n(Cc2ccccc2)c1C", "LABEL_CLASS": "inactive"}
{"MOLECULE": "CCOc1ccc(S(=O)(=O)NCCC(=O)NCC2CCCO2)cc1 (stereo not drawn)", "LABEL_CLASS": "inactive"}

# fetch the recorded call for O=C(NCC1Cc2cc(F)cc(-c3cnccn3)c2O1)C1COc2ccccc2O1 (stereo not drawn) here
inactive

# fetch the recorded call for CCC(C)c1ccc(NC(=S)N2CCCC2)cc1 (stereo not drawn) here
active

# fetch the recorded call for `CCOc1ccc(NC(=S)N2CCCCCC2)cc1` here
inactive

# fetch the recorded call for `COc1cc(/C=C/c2ccc(/C=C/c3cc(OC)c(OC)c(OC)c3)cc2)cc(OC)c1OC` here
inactive

# fetch the recorded call for `Cc1ccc(C(=O)NCCNS(=O)(=O)c2ccccc2)cc1` here
inactive

# fetch the recorded call for `O=C(CSc1nccn1-c1cccc(F)c1)NC1CCCC1` here
inactive

# fetch the recorded call for `CCn1cc(C(=O)N[C@@H](C)C(=O)NCCO)c(=O)c2cc3c(cc21)OCO3` here
inactive

# fetch the recorded call for `CN1C=CC=C/C1=C1\SC(=S)N(Cc2ccccc2)C1=O` here
inactive

# fetch the recorded call for COc1cc(NC(=S)N2CCCC(C)C2)cc(OC)c1OC (stereo not drawn) here
inactive

# fetch the recorded call for `COc1ccc(CNC(=O)CN(Cc2ccccc2Cl)C(=O)c2csnn2)cc1` here
inactive

# fetch the recorded call for `CCOC(=O)c1ccc(NC(=S)N2CCCC2)cc1` here
inactive

# fetch the recorded call for Cc1cc(C)c(NC(=O)C[N+](C)(C)CC(O)COc2cccc3ccccc23)c(C)c1 (stereo not drawn) here
active

# fetch the recorded call for `CC(=O)Nc1cccc([N+](=O)[O-])c1` here
inactive

# fetch the recorded call for COc1ccc(C(CNC(=O)c2ccc(S(=O)(=O)Nc3ccccc3F)cc2)N(C)C)cc1 (stereo not drawn) here
inactive

# fetch the recorded call for `CC(=O)O[C@H]1CC[C@@]2(C)C(=CC[C@@H]3[C@@H]2CC[C@]2(C)C(c4cccnc4)=CC[C@@H]32)C1` here
inactive

# fetch the recorded call for S=C(NNC(=S)NC1CC2CCC1C2)NC1CC2C=CC1C2 (stereo not drawn) here
inactive

###

assay: qHTS for Inhibitors of human tyrosyl-DNA phosphodiesterase 1 (TDP1): qHTS in cells in presence of CPT; details: chicken DT40 Tdp1-/-;hTDP1 cells + 20 nM CPT, ATP luminescence, 48 h; series mostly up to 46.2 µM; also: nearly all actives have a fitted effect of over 55% in size; also: potency is read from the fitted curve at half-maximal effect
About 50,000 (12%) of roughly 420,000 compounds were called active. Inconclusive results (about 26%) are left out. This is one part of a sample in which actives are shown more often than they occur.
VALUE_KIND: Potency

Illustrative cases are given below, each with its answer.
{"COMPOUND": "CC1(C(=O)NCc2ccco2)Cc2c(-c3ccc4c(c3)OCO4)ccnc2O1 (stereo unspecified)", "RESULT": "0.82 µM (active)"}
{"COMPOUND": "S=C(NCc1ccc2c(c1)OCO2)NCc1ccco1", "RESULT": "inactive"}
{"COMPOUND": "Cc1cc(C(=O)CC#N)c(C)n1-c1c(C)n(C)n(-c2ccccc2)c1=O", "RESULT": "inactive"}
{"COMPOUND": "COc1ccc(CNC(=O)C2CCN(C(=O)c3ccco3)CC2)cc1", "RESULT": "inactive"}
{"COMPOUND": "COc1ccccc1NC(=O)C1CCN(C(=O)c2ccc(C(C)(C)C)cc2)CC1", "RESULT": "23.1 µM (active)"}
{"COMPOUND": "COc1ccc(CNC(=O)C2CCN(C(=O)c3ccccc3)CC2)cc1", "RESULT": "inactive"}
{"COMPOUND": "CC1(C(=O)NCc2ccc(F)c(F)c2)Cc2c(-c3ccc4c(c3)OCO4)ccnc2O1 (stereo unspecified)", "RESULT": "4.11 µM (active)"}
{"COMPOUND": "CC(C)C(NC(=O)c1c(F)cccc1F)C(=O)NCc1ccncc1 (stereo unspecified)", "RESULT": "inactive"}

Recorded result, COc1ccc(NC(=O)N2CCCC(C(=O)Nc3ccccc3OC)C2)cc1 (stereo unspecified) , Potency: inactive

Recorded result, `Cc1cc(OCc2ccc(C(=O)Nc3ccc(C(=O)O)cc3)o2)ccc1Cl` , Potency: inactive

Recorded result, `CC(C)(C)c1ccc(C(=O)N2CCC(C(=O)N3CCCCC3)CC2)cc1` , Potency: inactive
